Molecular target: panel of more than 300 wild-type and mutant kinases (313 kinase panel) (Homo sapiens, UniProt P48730)
Assay: Kinase profiling in a biochemical assay panel (mobility shift assays and ELISA), %-inhibition at 1 μM; selectivity entropy
Details: kinase CK1δ; 1 μM compound
quantity measured: %-inhibition, CK1δ (%)
Write the answer as a number in %, unit excluded.

Worked set:
smiles entry	%-inhibition, CK1δ (%)
CO[C@H]1C[C@@H]2CC[C@@H](C)[C@@](O)(O2)C(=O)C(=O)N2CCCC[C@H]2C(=O)O[C@H]([C@H](C)C[C@@H]2CC[C@@H](OC(=O)C(C)(CO)CO)[C@H](OC)C2)CC(=O)[C@H](C)/C=C(\C)[C@@H](O)[C@@H](OC)C(=O)[C@H](C)C[C@H](C)/C=C/C=C/C=C/1C	-5.47
CO[C@H]1C[C@@H]2CC[C@@H](C)[C@@](O)(O2)C(=O)C(=O)N2CCCC[C@H]2C(=O)O[C@H]([C@H](C)C[C@@H]2CC[C@@H](OCCO)[C@H](OC)C2)CC(=O)[C@H](C)/C=C(\C)[C@@H](O)[C@@H](OC)C(=O)[C@H](C)C[C@H](C)/C=C/C=C/C=C/1C	-4.27
COc1cc2c(Nc3ccc(Br)cc3F)ncnc2cc1OCC1CCN(C)CC1	6
CCN(CC)CCNC(=O)c1c(C)[nH]c(/C=C2\C(=O)Nc3ccc(F)cc32)c1C	32
CCCS(=O)(=O)Nc1ccc(F)c(C(=O)c2c[nH]c3ncc(-c4ccc(Cl)cc4)cc23)c1F	-3

Consider the record given below.
%-inhibition, CK1δ reported for this molecule `C[C@@H](Oc1cc(-c2cnn(C3CCNCC3)c2)cnc1N)c1c(Cl)ccc(F)c1Cl` : 9
